Reference for the values: the supplement of paper PMC8728848

Target: Neu5Ac(a2-6)Gal(b1-4)GlcNAc(b1-2)[Neu5Ac(a2-6)Gal(b1-4)GlcNAc(b1-4)]Man(a1-3)[GlcNAc(b1-4)][Neu5Ac(a2-6)Gal(b1-4)GlcNAc(b1-2)[Neu5Ac(a2-6)Gal(b1-4)GlcNAc(b1-6)]Man(a1-6)]Man(b1-4)GlcNAc(b1-4)GlcNAc
Experiment: glycan array binding signal (z-score within array); higher = stronger binding
Details: glycan notation: IUPAC condensed, linker removed
This is one part of a sample in which the strongest signals are shown more often than they occur.
readout_name: glycan array binding signal (z-score)

Prompt: Please report glycan array binding signal (z-score) for the following binder: DC-Sign-R (Homo sapiens), Q9H2X3 (protein) MSDSKEPRVQQLGLLEEDPTTSGIRLFPRDFQFQQIHGHKSSTGCLGHGALVLQLLSFMLLAGVLVAILVQVSKVPSSLSQEQSEQDAIYQNLTQLKAAVGELSEKSKLQEIYQELTQLKAAVGELPEKSKLQEIYQELTRLKAAVGELPEKSKLQEIYQELTRLKAAVGELPEKSKLQEIYQELTRLKAAVGELPEKSKLQEIYQELTELKAAVGELPEKSKLQEIYQELTQLKAAVGELPDQSKQQQIYQELTDLKTAFERLCRHCPKDWTFFQGNCYFMSNSQRNWHDSVTACQEVRAQLVVIKTAEEQNFLQLQTSRSNRFSWMGLSDLNQEGTWQWVDGSPLSPSFQRYWNSGEPNNSGNEDCAEFSGSGWNDNRCDVDNYWICKKPAACFRDE
Response: 3.11
